# target.or.test.system: T1, human soluble DLL4 (R&D systems catalog #1056-D4-050) (human, UniProt Q9NR61 27-524)
# T1 construct: Catalog number as printed; perhaps the same product as #1506-D4; also called antigen DLL4
# T1 sequence (Q9NR61 27-524 limits assumed): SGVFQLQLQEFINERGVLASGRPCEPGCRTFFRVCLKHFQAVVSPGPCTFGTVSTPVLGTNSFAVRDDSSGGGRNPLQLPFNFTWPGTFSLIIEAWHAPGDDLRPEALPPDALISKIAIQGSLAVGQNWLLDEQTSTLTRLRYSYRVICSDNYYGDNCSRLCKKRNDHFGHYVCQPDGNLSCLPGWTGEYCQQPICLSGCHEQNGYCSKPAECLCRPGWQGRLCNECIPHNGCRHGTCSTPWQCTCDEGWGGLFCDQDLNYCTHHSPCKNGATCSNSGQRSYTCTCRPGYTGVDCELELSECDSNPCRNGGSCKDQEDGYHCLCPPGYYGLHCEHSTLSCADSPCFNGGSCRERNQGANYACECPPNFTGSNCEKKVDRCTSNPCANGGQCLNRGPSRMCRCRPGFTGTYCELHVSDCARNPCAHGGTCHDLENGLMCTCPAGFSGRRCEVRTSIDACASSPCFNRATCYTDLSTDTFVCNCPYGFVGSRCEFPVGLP
# experiment: Biacore T100, antibody immobilised, soluble human DLL4 as analyte
As shown below, each of these binders has a reported kon value.
Report the figure in M⁻¹ s⁻¹ without appending any unit label.

**Query** Which kon is listed for 4B4 IgG1 (antibody, V domains shown, Formatted as IgG1) VH: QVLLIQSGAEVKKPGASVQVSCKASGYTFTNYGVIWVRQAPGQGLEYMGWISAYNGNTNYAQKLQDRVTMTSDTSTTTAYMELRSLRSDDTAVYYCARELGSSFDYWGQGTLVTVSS VL: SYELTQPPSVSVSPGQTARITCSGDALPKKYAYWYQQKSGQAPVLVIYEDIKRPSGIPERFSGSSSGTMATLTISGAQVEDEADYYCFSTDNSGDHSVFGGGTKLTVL ?
**Result** 118000

**Query** Try this binder next: 21H3 IgG1 (antibody, V domains shown, Formatted as IgG1) VH: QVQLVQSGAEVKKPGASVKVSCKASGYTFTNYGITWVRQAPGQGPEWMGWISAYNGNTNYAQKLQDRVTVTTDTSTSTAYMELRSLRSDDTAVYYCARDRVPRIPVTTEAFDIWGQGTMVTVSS VL: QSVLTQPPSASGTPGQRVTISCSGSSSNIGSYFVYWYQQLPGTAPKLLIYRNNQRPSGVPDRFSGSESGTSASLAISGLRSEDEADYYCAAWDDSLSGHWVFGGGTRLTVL
**Result** 288000

**Query** Same question for 2H10 (antibody, IgG4, V domains shown, Fully human; used for IgG4 rows and where no isotype is printed; also called 2H10 IgG4) VH: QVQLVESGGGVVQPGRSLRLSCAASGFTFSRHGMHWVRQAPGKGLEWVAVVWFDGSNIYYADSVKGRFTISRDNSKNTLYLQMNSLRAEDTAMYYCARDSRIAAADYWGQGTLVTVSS VL: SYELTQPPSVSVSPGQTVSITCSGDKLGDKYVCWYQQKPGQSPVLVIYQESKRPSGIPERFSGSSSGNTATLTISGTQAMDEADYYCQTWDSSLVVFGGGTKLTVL please.
**Result** 40900

**Query** Try this binder too: 4B4 (antibody, IgG4, V domains shown, Fully human; used for IgG4 rows and where no isotype is printed; also called 4B4 IgG4; 4B4.1) VH: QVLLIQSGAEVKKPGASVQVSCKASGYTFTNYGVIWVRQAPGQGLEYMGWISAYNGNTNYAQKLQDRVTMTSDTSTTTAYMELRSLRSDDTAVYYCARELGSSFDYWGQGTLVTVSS VL: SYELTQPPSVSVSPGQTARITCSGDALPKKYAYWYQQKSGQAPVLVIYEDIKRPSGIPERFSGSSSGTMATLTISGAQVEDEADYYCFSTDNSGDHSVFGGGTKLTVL
**Result** 118000

**Query** Request: 9G8 (antibody, IgG4, V domains shown, Fully human; used for IgG4 rows and where no isotype is printed; also called 9G8 IgG4) VH: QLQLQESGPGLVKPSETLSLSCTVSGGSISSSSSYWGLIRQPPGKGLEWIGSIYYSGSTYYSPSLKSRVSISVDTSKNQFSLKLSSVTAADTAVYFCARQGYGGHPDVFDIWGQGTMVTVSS VL: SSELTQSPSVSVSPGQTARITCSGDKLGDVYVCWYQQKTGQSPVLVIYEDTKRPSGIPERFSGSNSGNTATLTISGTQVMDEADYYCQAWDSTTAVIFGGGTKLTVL
**Result** 103000

**Query** And then 21H3 (antibody, IgG4, V domains shown, Fully human; used for IgG4 rows and where no isotype is printed; also called 21H3 IgG4) VH: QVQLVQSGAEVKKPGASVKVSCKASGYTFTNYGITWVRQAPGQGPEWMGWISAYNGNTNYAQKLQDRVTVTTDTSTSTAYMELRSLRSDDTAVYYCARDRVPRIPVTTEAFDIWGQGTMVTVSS VL: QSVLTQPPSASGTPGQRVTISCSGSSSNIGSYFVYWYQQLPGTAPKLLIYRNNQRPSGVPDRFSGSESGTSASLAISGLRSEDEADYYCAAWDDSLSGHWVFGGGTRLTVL , what is it?
**Result** 317000

**Query** What do we get for 4B4 IgG2 (antibody, V domains shown, Formatted as IgG2) VH: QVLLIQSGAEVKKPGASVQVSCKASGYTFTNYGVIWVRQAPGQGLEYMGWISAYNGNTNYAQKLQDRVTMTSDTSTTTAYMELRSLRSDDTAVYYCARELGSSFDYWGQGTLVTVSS VL: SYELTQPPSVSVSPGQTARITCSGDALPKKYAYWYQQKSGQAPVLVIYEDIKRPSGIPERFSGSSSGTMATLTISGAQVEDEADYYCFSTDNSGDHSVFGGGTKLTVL ?
**Result** 107000

**Query** Same question, 21H3 IgG2 (antibody, V domains shown, Formatted as IgG2) VH: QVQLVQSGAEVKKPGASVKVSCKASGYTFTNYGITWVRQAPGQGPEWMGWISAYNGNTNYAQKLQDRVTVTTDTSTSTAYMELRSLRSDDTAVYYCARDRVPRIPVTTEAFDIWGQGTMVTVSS VL: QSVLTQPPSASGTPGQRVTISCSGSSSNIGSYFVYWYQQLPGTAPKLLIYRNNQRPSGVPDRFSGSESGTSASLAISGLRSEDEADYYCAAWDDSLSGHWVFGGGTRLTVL this time
**Result** 259000
